# Tested on: gastric acid secretion
# Test protocol: Inhibition of gastric acid secretion (Total Acid Output) in rats; antisecretory activity
# Type: in vivo, Female Sprague-Dawley rats
# Details: 1 h; rat; po, one hour prior to surgery; read-out: ED50 (dose required to produce an average of 50% inhibition in Total Acid Output versus controls)
ED50 less than 10 mg/kg is Fulfilled; ED50 greater than or equal to 10 mg/kg is Not fulfilled.

# Compound, Category
measured = [
    ("Cl.N=CN1CCC(C(c2ccccc2)c2ccccc2)CC1.O", "Fulfilled"),
    ("CCCCCCCCCN=CN1CCC(C(c2ccccc2)c2ccccc2)CC1", "Not fulfilled"),
    ("N=CN1CCC(C(c2ccccc2)c2ccc(Cl)cc2)CC1 (stereo not shown)", "Fulfilled"),
    ("C(=NC12CC3CC(CC(C3)C1)C2)N1CCC(C(c2ccccc2)c2ccccc2)CC1", "Not fulfilled"),
    ("COc1ccc(C(c2ccccc2)C2CCN(C=N)CC2)cc1 (stereo not shown)", "Not fulfilled"),
    ("CCC(=N)N1CCC(C(c2ccccc2)c2ccccc2)CC1", "Not fulfilled"),
    ("CCCCCCCCN=CN1CCCC(C(c2ccccc2)c2ccccc2)C1 (stereo not shown)", "Not fulfilled"),
    ("C(=NCc1ccccc1)N1CCC(C(c2ccccc2)c2ccccc2)CC1", "Fulfilled"),
]
